System: T1, human GIP receptor (human, UniProt P48546 22-466)
T1 sequence (looked up): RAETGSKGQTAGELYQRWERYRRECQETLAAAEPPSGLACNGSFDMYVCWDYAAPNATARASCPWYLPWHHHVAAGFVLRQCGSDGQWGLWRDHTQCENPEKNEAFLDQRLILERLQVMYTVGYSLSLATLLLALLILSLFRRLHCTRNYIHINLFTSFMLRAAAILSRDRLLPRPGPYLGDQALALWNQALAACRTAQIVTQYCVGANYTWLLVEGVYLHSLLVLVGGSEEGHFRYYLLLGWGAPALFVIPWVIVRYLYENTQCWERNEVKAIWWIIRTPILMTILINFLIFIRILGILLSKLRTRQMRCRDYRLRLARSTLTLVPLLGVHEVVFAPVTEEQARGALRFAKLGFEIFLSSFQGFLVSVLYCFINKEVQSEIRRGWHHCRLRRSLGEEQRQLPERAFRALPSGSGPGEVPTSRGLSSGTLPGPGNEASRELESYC
Method summary: cell-based or functional assay
Bridges are numbered along the chain shown (N, C = ends). Where no end group is shown, it is not given here. [ ]: non-standard residue; d: D form. The star is where a group is joined. Acetyl(2-(4-imidazolyl)) = O=C(Cc1c[nH]cn1)*; Aib = CC(C)(N)C(=O)O
Measured parameter: In vitro activity relative to native peptide (%) vs. GIP

[
  {
    "Binder": "H[Aib]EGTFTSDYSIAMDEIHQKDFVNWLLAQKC (bridge 16-20) [triple agonist of SEQ ID NO: 79]",
    "Result modifier": "=",
    "Result": 1.4
  },
  {
    "Binder": "H[Aib]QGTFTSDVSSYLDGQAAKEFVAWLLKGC [triple agonist of SEQ ID NO: 6]",
    "Result modifier": "<",
    "Result": 0.1
  },
  {
    "Binder": "Y[Aib]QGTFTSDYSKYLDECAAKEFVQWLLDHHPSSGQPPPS (bridge 16-20) [triple agonist of SEQ ID NO: 64]",
    "Result modifier": "=",
    "Result": 92.9
  },
  {
    "Binder": "H[Aib]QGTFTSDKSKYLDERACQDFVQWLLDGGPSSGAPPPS [triple agonist of SEQ ID NO: 40]",
    "Result modifier": "<",
    "Result": 0.1
  },
  {
    "Binder": "{Acetyl(2-(4-imidazolyl))}-[Aib]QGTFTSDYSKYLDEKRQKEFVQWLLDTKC (bridge 15-19) [triple agonist of SEQ ID NO: 89]",
    "Result modifier": "<",
    "Result": 0.1
  },
  {
    "Binder": "{Acetyl(2-(4-imidazolyl))}-[Aib]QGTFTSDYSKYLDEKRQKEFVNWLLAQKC (bridge 15-19) [triple agonist of SEQ ID NO: 93]",
    "Result modifier": "=",
    "Result": 0.7
  }
]
